Catalogue of molecules with associated CC50 at 5 days
test: Test B: Cytotoxicity Assay (uninfected MT-4 cells); format: cell-based; details: human, same protocol as Test A, read-out: MT4-CC50
MEASURED ATTRIBUTE: CC50 at 5 days (µM)

1) CN(C(=O)[C@@H]1Cc2cc(F)cc(c2)CCCc2[nH]c3ccccc3c2CC(=O)N1)c1ccc(Cl)cc1	47.1
2) CN(Cc1ccccc1)C(=O)[C@@H]1Cc2cc(F)cc(c2)CCCc2[nH]c3ccccc3c2CC(=O)N1	52.3

* * *

assay: Test B: Cytotoxicity Assay (uninfected MT-4 cells); format: cell-based; details: human, same protocol as Test A, read-out: MT4-CC50
Catalogue of compounds with associated CC50 at 5 days
MEASURED ATTRIBUTE: CC50 at 5 days

1) CN(C(=O)[C@@H]1Cc2cccc(c2)CCc2[nH]c3ccc(=O)[nH]c3c2CC(=O)N1)c1ccc(Cl)cc1	> 53 µM
2) COc1ccc(N(C)C(=O)[C@@H]2Cc3cccc(c3)CCS(=O)(=O)Cc3[nH]c4ccc(O)cc4c3CC(=O)N2)cc1	> 53 µM
3) COc1ccc(N(C)C(=O)[C@@H]2Cc3cccc(c3)C/C=C\c3[nH]c4ccccc4c3CC(=O)N2)cc1	> 53 µM
4) COc1ccc(N(C)C(=O)[C@@H]2Cc3cccc(c3)CCCCc3[nH]c4ccccc4c3CC(=O)N2)cc1	> 48.7 µM
5) COc1ccc(N(C)C(=O)[C@@H]2Cc3cccc(c3)S(=O)(=O)Cc3[nH]c4ccccc4c3CC(=O)N2)cc1	> 53 µM
6) COc1ccc(N(C)C(=O)[C@@H]2Cc3cc(F)cc(c3)CCCc3[nH]c4ccccc4c3CC(=O)N2)cc1 [Example 23K]	> 50.3 µM
7) COc1ccc(N(C)C(=O)[C@@H]2Cc3cccc(c3)CCS(=O)(=O)Cc3[nH]c4ccc(F)cc4c3CC(=O)N2)cc1	> 53 µM
8) COc1ccc(N(C)C(=O)[C@@H]2Cc3cccc(c3)CS(=O)(=O)c3[nH]c4ccccc4c3CC(=O)N2)cc1	> 53 µM
9) COc1ccc(N(C)C(=O)[C@@H]2Cc3cccc(c3)/C=C\c3[nH]c4ccccc4c3CC(=O)N2)cc1	> 53 µM
10) COc1ccc(N(C)C(=O)[C@@H]2Cc3cccc(c3)SCc3[nH]c4ccccc4c3CC(=O)N2)cc1	> 53 µM
11) COc1ccc(N(C)C(=O)[C@@H]2Cc3cccc(c3)/C=C/Cc3[nH]c4ccccc4c3CC(=O)N2)cc1	> 52.6 µM
